molecular target: 1,25-(OH)2 D3 receptors (calf intestine) (Bos taurus); construct: receptor prepared from intestine of chick, rat and calf; from tissue; host or cells: calf proximal small-intestine mucosa, cytosol, 35% ammonium sulphate precipitate; experiment: Competitive Binding to 1,25-(OH)2 D3 Intestine Receptors, calf; conditions: a/b×100 from amounts displacing 50% of 1,25-(OH)2[3H]D3
Sequence (Q28037 whole entry): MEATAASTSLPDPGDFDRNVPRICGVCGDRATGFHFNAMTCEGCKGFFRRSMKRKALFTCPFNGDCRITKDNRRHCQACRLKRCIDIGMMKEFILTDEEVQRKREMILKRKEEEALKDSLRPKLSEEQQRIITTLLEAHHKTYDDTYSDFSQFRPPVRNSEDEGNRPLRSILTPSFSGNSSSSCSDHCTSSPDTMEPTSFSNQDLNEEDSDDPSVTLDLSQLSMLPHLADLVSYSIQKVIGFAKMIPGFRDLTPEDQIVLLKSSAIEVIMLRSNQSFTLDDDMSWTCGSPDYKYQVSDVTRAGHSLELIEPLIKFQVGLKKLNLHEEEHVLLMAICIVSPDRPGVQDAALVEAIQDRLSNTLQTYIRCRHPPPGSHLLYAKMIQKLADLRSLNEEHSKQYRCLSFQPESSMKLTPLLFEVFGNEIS
Item-by-item account of Competitive Binding to 1,25-(OH)2 D3 Receptors - % of 1,25-(OH)2 D3 Effect, calf intestine
Give the quantity in %, number only.

Sample answers from the record:
1) C=C1CC[C@H](O)C/C1=C/C=C1\CCC[C@]2(C)[C@@H]([C@H](C)CC#CC(O)(C(F)(F)F)C(F)(F)F)CC[C@@H]12    0
2) C=C1CC[C@H](O)C/C1=C/C=C1\CCC[C@]2(C)[C@@H]([C@H](C)CC#CC(C)(C)O)CC[C@@H]12 [Compound C, 25-hydroxy-23-yne-cholecalciferol]    0
3) C=C1/C(=C\C=C2/CCC[C@]3(C)[C@@H]([C@H](C)CC#CC(O)(C(F)(F)F)C(F)(F)F)CC[C@@H]23)C[C@@H](O)C[C@@H]1O    62

Turning to the following compound.
Record summary for C=C1/C(=C\C=C2/CCC[C@]3(C)[C@@H]([C@H](C)CC#CC(C)(C)O)CC[C@@H]23)C[C@@H](O)C[C@@H]1O [Compound A, 1α,25-dihydroxy-23-yne-cholecalciferol] : reported Competitive Binding to 1,25-(OH)2 D3 Receptors - % of 1,25-(OH)2 D3 Effect, calf intestine = 47
